Assay: Human HepG2 cell viability assay in 384 well format
Assay type: toxicity, cell-based
Parameters: dose 125 nL, time 70.5 hour; concentration not given beside the values
Settings: HepG2 cells, read-out: Inhibition
Please provide measured cytotoxicity at 70.5 h for the entries that follow.
One number for each entry, in %.

Answered cases to consult:
Ask: Indicate its recorded cytotoxicity at 70.5 h; the compound in question is COCC(=O)N1CCC2(CCN(c3cnn(C)c3)C2=O)C1 (stereo not given)
Result: 34.5

Ask: Return cytotoxicity at 70.5 h (reported value) for this compound: "O=C([C@@H]1COC[C@H]2CN(CC3CCCC3)C[C@H]21)N1CCOCC1"
Result: -7.37

Ask: Answer with the recorded cytotoxicity at 70.5 h of "c1csc(CN2CCO[C@H]3[C@H](OCC4CCCC4)CC[C@@H]32)n1" only.
Result: -1.77

Ask: Read the entry CC(C)CN1CCC(c2nc3c([nH]2)CC(C)(C)CNC3=O)C1 (stereo not given) and write its reported cytotoxicity at 70.5 h.
Result: -9.67

Continuing:
Ask: Output cytotoxicity at 70.5 h of "COc1ccc(-c2nnc(CNCCn3cc(C)cn3)o2)cc1"
Result: 14.6

* * *

Consider the following compounds; for each one, report its cytotoxicity at 70.5 h.
Assay: Human HepG2 cell viability assay in 384 well format
Type: toxicity, cell-based
Design: dose 125 nL, time 70.5 hour; concentration not given beside the values
Settings: HepG2 cells, read-out: Inhibition
Give bare numbers, in %.

Example entries and their recorded answers appear below.
Ask: Identify measured cytotoxicity at 70.5 h corresponding to CN(C)C(=O)CN1CCOCC2(C1)CN(c1ncc(F)cn1)CCO2 (stereo not given)
Result: -10.2

Ask: Dear colleague, please send me the reported cytotoxicity at 70.5 h for "CN(C)S(=O)(=O)N1CCC(C)(c2ncc(C(N)=O)s2)CC1" when you can.
Result: -5.66

I need cytotoxicity at 70.5 h for every entry listed below, if you could help.
1. Clc1ccccc1-c1nc(CNCCn2cccn2)cs1
2. CNc1ncc(CN(C)c2nccc(CCC(F)(F)F)n2)cn1
3. Cn1c(=O)c2cc(C(=O)NCCOc3ccccc3)ccc2n(C)c1=O

Result:
[-6.01, -2.35, 24.3]

* * *

Experiment: Human HepG2 cell viability assay in 384 well format
Type: toxicity, cell-based
Design: dose 125 nL, time 70.5 hour; concentration not given beside the values
Settings: HepG2 cells, read-out: Inhibition
Kindly state cytotoxicity at 70.5 h for each of the entries shown.
One number for each entry, in %.

Please review the following examples before continuing.
Ask: Consider the compound "Cc1cc(C(=O)N2CCc3c(nc(-c4ccncc4)[nH]c3=O)C2)no1" and give its recorded cytotoxicity at 70.5 h.
Result: 2.99

Ask: Give the reported cytotoxicity at 70.5 h for this compound. "O=C(C1CCCC1)N1C[C@H]2CNC[C@H]2C1"
Result: -8.49

Ask: State, in one line, measured cytotoxicity at 70.5 h of "COCCN1CCN(Cc2ccc(Cl)cc2)[C@H]2CS(=O)(=O)C[C@H]21"
Result: 0.00609

Ask: // Input: CNC(=O)c1cn[nH]c1C1CCN(Cc2cn(C)nc2C)C1 (centres undefined) . Output its cytotoxicity at 70.5 h only.
Result: -12.4

Ask: Please list cytotoxicity at 70.5 h recorded for the compound "CN1CC(Oc2ccccc2)=NC(SCC(=O)Nc2ccccc2Cl)=N1"
Result: 5.43

# return cytotoxicity at 70.5 h for each item in the list
1. COc1ncccc1NC(=O)c1[nH]nc(C(C)C)c1Br
2. O=C(c1cnn2c1OCCC2)N1CCC(Cc2ccccc2)CC1
3. O=C1c2cccnc2OC(CN2CCOCC2)CN1CC1CC1 (centres undefined)
4. Cc1ccc(C)c(-n2ncc(C(=O)N(C)CCc3ccccn3)c2N)c1

Result:
[-8.6, 29.6, -1.18, 4.61]

* * *

Experiment: Human HepG2 cell viability assay in 384 well format
Assay type: toxicity, cell-based
Design: dose 125 nL, time 70.5 hour; concentration not given beside the values
Conditions: HepG2 cells, read-out: Inhibition
parameter.measured: cytotoxicity at 70.5 h (%)
One number for each entry, in %.

Example entries begin here.
Ask: Given "O=C([C@H]1CCCN1)N1CC2(CCNCC2)c2cc(Cl)ccc21" , respond with its cytotoxicity at 70.5 h.
Result: 30

Ask: Recall and state the measured cytotoxicity at 70.5 h for "c1ccc(-n2nnnc2CNCc2ccc3c(c2)OCCO3)cc1" .
Result: -8.49

Ask: State its cytotoxicity at 70.5 h: COCc1nc(C(=O)OCC2CCN(c3ccccc3)C2)cs1 (stereo not drawn)
Result: -88.7

Ask: Check the records and state cytotoxicity at 70.5 h for Cc1nnc(CN(C)CC(=O)N2CCCC(C)CC2)n1C (stereo not drawn)
Result: -8.63

Ask: Supply recorded cytotoxicity at 70.5 h for "Cc1cc(C)cc(N(C)S(=O)(=O)c2cc3c(c(C(=O)O)c2)OCCO3)c1" here.
Result: -12.8

Could you report cytotoxicity at 70.5 h for every entry in the following list?
1. CCN(Cc1ccncc1)c1cc(C2CCNCC2)nc(C)n1
2. Cc1nc(N)ncc1C(=O)N1CCCC(CCc2ccc(F)cc2)C1 (stereo not drawn)
3. Cc1ncc(CN2CCCC2)c2cc(C(=O)c3ccc(Br)cc3)oc12
4. C=Cn1cc(CN2CCC(c3ncc(Cl)cc3S(C)(=O)=O)CC2)c(C)n1
5. CC1(C)[C@H]2CC=C(CN3CCCn4nc(C(=O)NCCO)cc4C3)[C@@H]1C2

Result:
19.5
-18.8
-14.3
-3.31
-4.77

Hi team, please reply with cytotoxicity at 70.5 h for each item in this list.
1. Cc1cc(CNC(=O)c2ccc(F)c(COCC3CC3)c2)no1
2. NC(=O)NCC(=O)N1CCCC(OCc2cccnc2)C1 (stereo not drawn)
3. COc1ccc(C(C)Nc2nc3c(C)nn(C)c3c(=O)n2C)cc1 (stereo not drawn)
4. N#Cc1cccnc1N1CCCC(CO)(Cc2ccccc2F)C1 (stereo not drawn)
5. CCN(CC)CCNc1nc(C(C)C)nc2c(C)nn(CC)c12
6. Cc1ccc(N2CCc3ncnc(C4CC4)c3CC2)nn1
7. Cc1ccc(C(=O)N2CC[C@@]3(O)CCN(C(=O)N(C)C)C[C@H]3C2)cc1Cl

Result:
1. -9.69
2. 47.2
3. -3.89
4. -4.89
5. -2.61
6. 21.3
7. -8.07

Look up cytotoxicity at 70.5 h for the entries below, preserving their order.
1. Cc1ncsc1CNc1cccc(OCCN2CCCC2)c1
2. Cc1cc(C2CCCN2Cc2ccc(S(=O)(=O)N(C)C)o2)on1 (stereo not drawn)
3. CC(C)Oc1ncnc2c1CCN(Cc1ccc(F)cc1)CC2
4. O=C(CCC1CCCCO1)NCc1cnn(-c2ccc(F)cc2F)c1 (stereo not drawn)
5. Cc1noc(C)c1CN1CC2(CCN(C(=O)c3c[nH]cn3)C2)CC1=O (stereo not drawn)
6. Cc1noc(C)c1CN(C)CC1CC(C2CCCCC2)=NO1 (stereo not drawn)

Result:
1. 1.28
2. -1.52
3. -5.44
4. 8.18
5. -11.1
6. -2.46

* * *

Assay: Human HepG2 cell viability assay in 384 well format
Type: toxicity, cell-based
Parameters: dose 125 nL, time 70.5 hour; concentration not given beside the values
Conditions: HepG2 cells, read-out: Inhibition
Task for the reader: assign each of the following compounds its reported cytotoxicity at 70.5 h.
Numbers only, in %.

Ask: Please give measured cytotoxicity at 70.5 h of the following entry: CN(c1ncc(S(N)(=O)=O)s1)C1CCc2ccccc2C1 (stereo unspecified)
Result: -10

Ask: Please look at this compound and report its cytotoxicity at 70.5 h: "CN(CCc1ccccn1)C(=O)c1cn2c(n1)CNCC2"
Result: -8.81

Ask: Specify measured cytotoxicity at 70.5 h for "CCc1nnc2n1CCN(Cc1cc(Cl)c3c(c1)OCCCO3)C2" .
Result: 0.524

Ask: For the compound N#Cc1c(Cl)nsc1NCc1ccc(N2CCCC(C(N)=O)C2)cc1 (stereo unspecified) , give its measured cytotoxicity at 70.5 h value.
Result: -2.18

Ask: Tell us which cytotoxicity at 70.5 h value is on record for "Cn1nc(C(=O)NCc2ccc(OC3CCCCC3)nc2)ccc1=O"
Result: 21.9

Let's switch to this compound now.
Ask: Dear colleague, please send me the reported cytotoxicity at 70.5 h for "Cc1cc(NS(=O)(=O)c2cnc3onc(C)c3c2)no1" when you can.
Result: 0.112

* * *

Test: Human HepG2 cell viability assay in 384 well format
Type: toxicity, cell-based
Design: dose 125 nL, time 70.5 hour; concentration not given beside the values
Conditions: HepG2 cells, read-out: Inhibition
Please respond with reported cytotoxicity at 70.5 h for every item in the list.
Give bare numbers, in %.

Known cytotoxicity at 70.5 h results, listed for orientation:
Ask: Tell me cytotoxicity at 70.5 h reported for Cc1ccc(CN2CCN(c3ncccc3C(N)=O)CC2CCO)cc1 (stereo unspecified)
Result: -2.3

Ask: Recall and state the measured cytotoxicity at 70.5 h for COc1cc(N2CCN(Cc3ccsc3)C(CCO)C2)nc(N)n1 (stereo unspecified) .
Result: 9.1

Ask: Note cytotoxicity at 70.5 h for the compound shown: CC(O)CN1CCN(C(=O)c2cnn(-c3ccccc3F)c2)CC1 (stereo unspecified)
Result: -6.92

Hi! Can you tell me cytotoxicity at 70.5 h for each of these compounds?
1. COc1ccc(CCC2CCCN(CC(=O)O)C2)cc1 (stereo unspecified)
2. COc1cc(NCc2cccnc2)c(-c2nn[nH]n2)cc1OC
3. CN(c1ccc(C#N)cn1)C1CCCN(Cc2noc(C3CC3)n2)C1 (stereo unspecified)

Result:
[-6.84, -11.1, -0.287]
